Tested on: DU-145
Test: Cytotoxicity against human DU145 cells assessed as growth inhibition after 24 hrs by MTT assay
Type: functional, cell-based
Conditions: DU-145, 24 h
Lab note: compare IC50 with 30 µM, writing 1 if less and 0 if equal or more.

INSERT INTO assay_data (molecule, assigned_category) VALUES
  ('CCOC(=O)C1=Cc2ccccc2OC1(OCc1cn(-c2cccc(OC)c2)nn1)C(F)(F)F (centres undefined)', 0),
  ('CCOC(=O)C1=Cc2ccccc2OC1(OCc1cc(-c2cccc(C(F)(F)F)c2)no1)C(F)(F)F (centres undefined)', 0),
  ('CCOC(=O)C1=Cc2ccccc2OC1(OCc1cn(-c2ccc(F)cc2)nn1)C(F)(F)F (centres undefined)', 1),
  ('CCOC(=O)C1=Cc2ccccc2OC1(OCc1cn(CC(=O)NC2CCCCC2)nn1)C(F)(F)F (centres undefined)', 1),
  ('O=c1[nH]cc(F)c(=O)[nH]1', 1),
  ('CCOC(=O)C1=Cc2ccccc2OC1(OCc1cn(CC(=O)Nc2ccc(OC)cc2)nn1)C(F)(F)F (centres undefined)', 0),
  ('CCOC(=O)C1=Cc2ccccc2OC1(OCc1cn(CC(=O)Nc2ccccc2F)nn1)C(F)(F)F (centres undefined)', 0),
  ('CCOC(=O)C1=Cc2ccccc2OC1(OCc1cc(-c2ccc(C)cc2)no1)C(F)(F)F (centres undefined)', 0),
  ('Cc1ccc(-c2cc(COC3(C(F)(F)F)Oc4ccccc4C=C3C(=O)O)on2)cc1 (centres undefined)', 0);
